Attribution: PubChem BioAssay AID1566

experiment: inhibition of NOD2-driven NF-kB reporter – cell-based, luminescence, uHTS, HEK293 (AID 1566); conditions: HEK293 NOD2/NF-kB luciferase reporter, at 4 µM, active compounds read high
Screen size: about 290,000 compounds; about 1,800 (0.62%) were called active. The sample as a whole holds a higher share of actives than the screen did.
Rule: inhibition of 20% or more gives label 1; anything lower gives label 0.

{"compound": "CC(C)CCOP(N)(=O)Oc1ccccc1 (stereo not given)", "class": "label 0"}
{"compound": "Cc1c(C(=O)Nc2ccccc2)cc(-c2ccccc2)n1CCCN1CCOCC1", "class": "label 0"}
{"compound": "CCOC(=O)C1=CC(=C2C(=O)N(CC)C(=S)N(CC)C2=O)c2ccccc2O1", "class": "label 0"}
{"compound": "CC1(c2ccc(Cl)cc2Cl)OCC(Cn2cncn2)O1 (stereo not given)", "class": "label 1"}
{"compound": "CC12CC[C@H]3[C@@H](CCC4(O)C[C@H](O)CCC34/C=N/NC(=O)c3ccccc3Cl)C1(O)CCC2C1=CC(=O)OC1 (stereo not given in full)", "class": "label 1"}

----------
assay: inhibition of NOD2-driven NF-kB reporter – cell-based, luminescence, uHTS, HEK293 (AID 1566); settings: HEK293 NOD2/NF-kB luciferase reporter, at 4 µM
Among all 290,000 compounds or so, about 1,800 (0.62%) were called active. Rule as the data show it: active = inhibition above about 50%; inactive = the rest. Shown is part of a subset that was picked to be rich in actives.
Classes used: active, inactive

{"molecule": "CCOc1cccc(=NC2CCCCC2)c2c(C)n(C)c(C)c12", "class": "inactive"}
{"molecule": "O=c1cc(CN2CCNCC2)nc2sccn12", "class": "inactive"}
{"molecule": "Cc1ccsc1-c1nc(CSCC(=O)N2CCC3(CC2)OCCO3)c(C)o1", "class": "inactive"}
{"molecule": "C[C@H]1C[C@@H](C)C(=O)[C@@H]([C@H](O)CC2CC(=O)NC(=O)C2)C1", "class": "active"}
{"molecule": "Nc1cc2nc3ccccc3nc2cc1N", "class": "inactive"}
{"molecule": "O=C(Cn1cc(C(=O)c2ccccc2F)c2ccccc21)NC1CC1", "class": "inactive"}
{"molecule": "CCCNS(=O)(=O)c1ccc(OCC(=O)N2CCN(Cc3ccc4c(c3)OCO4)CC2)cc1", "class": "inactive"}
{"molecule": "COc1ccc(CNCCc2ccc(Cl)cc2Cl)cc1", "class": "inactive"}
{"molecule": "O=C(CCNC(=O)N1C[C@H]2C[C@@H](C1)c1cccc(=O)n1C2)Nc1cccc(Cl)c1", "class": "inactive"}
{"molecule": "C[C@H]1[C@H](OC(=O)CCC(=O)NCc2ccc(C(=O)O)cc2)O[C@@H]2O[C@@]3(C)CC[C@H]4[C@H](C)CC[C@@H]1C24OO3", "class": "inactive"}
{"molecule": "CCNC(=O)[C@H]1O[C@@H](n2cnc3c(N)ncnc32)[C@H](O)[C@@H]1O", "class": "inactive"}
{"molecule": "CCc1ccc(OCC(=O)N2CCN(Cc3ccc4c(c3)OCO4)CC2)cc1", "class": "inactive"}
{"molecule": "CC1C(OC(=O)CCC(=O)NC(C)(C)CO)O[C@H]2OC3(C)CC[C@H]4[C@H](C)CCC1C24OO3 (some centres undefined)", "class": "active"}
{"molecule": "CCOc1ccc(-c2cc(C)[n+](CCO)c(-c3ccc(OCC)cc3)c2)cc1", "class": "inactive"}
{"molecule": "CCOc1ccc(N2C(=O)NC(=O)/C(=C/c3cnc(SC)nc3)C2=O)cc1", "class": "inactive"}
{"molecule": "CC(Cc1ccsc1)NCc1cn[nH]c1-c1ccc(F)cc1F (centres undefined)", "class": "inactive"}
{"molecule": "NC(=S)c1cn(C2OC(CO)C(O)C2O)c2ncnc(N)c12 (centres undefined)", "class": "active"}
{"molecule": "CN(C)C(=O)Oc1ccc2c(c1)O/C(=C\\c1ccc(Cl)cc1)C2=O", "class": "inactive"}
{"molecule": "COc1ccccc1/C=C1\\C(=O)NC(=S)N(c2ccccc2)C1=O", "class": "inactive"}
{"molecule": "O=C(COc1ccc2ccc(=O)oc2c1)N1C[C@H]2C[C@@H](C1)c1cccc(=O)n1C2", "class": "inactive"}
{"molecule": "O=c1[nH]c(=O)n(CCC2=CCCCC2)c(O)c1/C=N/Nc1ccccc1", "class": "inactive"}
{"molecule": "Cc1oc(-c2cccs2)nc1CSCC(=O)N1CCC2(CC1)OCCO2", "class": "active"}
{"molecule": "COC(=O)c1nc(-c2ccc3c(n2)C(=O)C(N)=C(OC)C3=O)c(N)c(-c2ccc(OC)c(OC)c2O)c1C", "class": "active"}
{"molecule": "C[n+]1c2ccccc2nc2ccc(NCCO)cc21", "class": "inactive"}
{"molecule": "O=c1c2ccccc2nc(/C=C/c2ccc(O)cc2)n1-c1ccccc1O", "class": "inactive"}
{"molecule": "COc1cc(N2CCOCC2)ccc1/C=C1\\C(=O)NC(=O)N(C2CCCCC2)C1=O", "class": "inactive"}
{"molecule": "CCC(=O)Nc1cc(C(=O)N2CCC3(CC2)OCCO3)ccc1S(=O)(=O)c1ccc(C)cc1", "class": "inactive"}
{"molecule": "O=C(Nc1ccc(OC(=O)N2CCCC2)cc1)N1CCOCC1", "class": "inactive"}
{"molecule": "O=C(c1ccc(N2CCCCC2)c([N+](=O)[O-])c1)N1CCC2(CC1)OCCO2", "class": "inactive"}
{"molecule": "O=C(Nc1cccc(OC(=O)N2CCCCC2)c1)N1CCOCC1", "class": "inactive"}
{"molecule": "CCOc1ccc(-c2cc(C)[n+](CCN3CCOCC3)c(-c3ccc(OCC)cc3)c2)cc1", "class": "inactive"}
{"molecule": "O=C(c1cc(C(=O)NCc2ccccc2)c(=O)n(Cc2ccccc2)c1)c1cc(Br)ccc1O", "class": "inactive"}
{"molecule": "Cc1cccc(-n2c(O)c(C=NCCN3CCNCC3)c(=O)[nH]c2=S)c1", "class": "inactive"}
{"molecule": "C=CCn1c(O)c(/C(C)=N/NC(=S)Nc2ccccc2)c(=O)[nH]c1=O", "class": "inactive"}
